- measuredTarget: FAP protein (Homo sapiens, UniProt Q12884)
- Construct: purchased Sinobiological
- Sequence (Q12884 whole entry): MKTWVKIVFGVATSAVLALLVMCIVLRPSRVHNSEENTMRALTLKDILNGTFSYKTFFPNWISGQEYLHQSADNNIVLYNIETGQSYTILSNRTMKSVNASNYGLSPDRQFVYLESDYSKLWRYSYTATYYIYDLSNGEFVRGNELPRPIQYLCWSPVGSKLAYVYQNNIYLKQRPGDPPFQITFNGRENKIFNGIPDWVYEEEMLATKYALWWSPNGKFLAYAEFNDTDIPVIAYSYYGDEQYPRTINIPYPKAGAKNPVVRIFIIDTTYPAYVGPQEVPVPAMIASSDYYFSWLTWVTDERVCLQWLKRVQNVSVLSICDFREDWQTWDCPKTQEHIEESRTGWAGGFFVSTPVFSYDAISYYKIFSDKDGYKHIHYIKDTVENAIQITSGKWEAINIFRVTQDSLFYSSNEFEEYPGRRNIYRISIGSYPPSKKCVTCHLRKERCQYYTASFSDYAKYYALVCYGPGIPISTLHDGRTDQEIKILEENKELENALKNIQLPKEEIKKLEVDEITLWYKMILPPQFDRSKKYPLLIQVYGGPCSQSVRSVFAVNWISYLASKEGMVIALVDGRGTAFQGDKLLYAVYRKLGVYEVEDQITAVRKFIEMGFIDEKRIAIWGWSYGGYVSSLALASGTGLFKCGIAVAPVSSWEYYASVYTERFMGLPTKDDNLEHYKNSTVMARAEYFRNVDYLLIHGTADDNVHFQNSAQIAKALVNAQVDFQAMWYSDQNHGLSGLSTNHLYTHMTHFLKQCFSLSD
- methodSummary: Biacore test of compound affinity to FAP protein
- conditionInfo: Biacore 8K, SA chip, 15° C., 1:1 binding model; read-out: pKD (FAP) (converted)
Numbered stars: 1 amine (or outer) side, 2 acyl side, 3 side chain; on linkers, the order of the positions; unused ones are H or OH. Bridge positions count the residues as written; N and C are the ends. Square brackets hold non-standard residues; d marks the D form. Side chains are listed from the residue outwards. Peptide text beside a SMILES is read from it. * marks the point of attachment. ξ: configuration not given here. DOTA = O=C(O)CN1CCN(CC(=O)O)CCN(CC(=O)*)CCN(CC(=O)O)CC1; Azetidine3carboxylic = O=C(C1CN([*:1])C1)[*:2]; mXylylene = c1cc(C[*:1])cc(C[*:2])c1; Cha = N[C@@H](CC1CCCCC1)C(=O)O; Dab = NCC[C@H](N)C(=O)O; Dap = NC[C@H](N)C(=O)O; Hexanoyl = CCCCCC(=O)*; CO = O=C([*:1])[*:2]; ξP = O=C(O)C1CCCN1; Ava = NCCCCC(=O)O; GABA = NCCCC(=O)O; ξC = NC(CS)C(=O)O; NHBu = CCCCN*
recordedEndpoint: Kd

- CCCCNC(=O)N[C@H]1CSCc2cccc(c2)CSCC(C(=O)N[C@@H](CCNC(=O)CCCNC(=O)CN2CCN(CC(=O)O)CCN(CC(=O)O)CCN(CC(=O)O)CC2)C(=O)O)NC(=O)[C@H](CC2CCCCC2)NC(=O)[C@H](CCC(N)=O)NC(=O)[C@H]([C@@H](C)O)NC(=O)[C@@H]2CCCN2C(=O)C2CN(C2)C1=O (stereo partly drawn) [JHDC55] ({NHBu-CO}-C[Azetidine3carboxylic]PTQ[Cha][ξC][Dab]([GABA-DOTA])-OH; linker 1-7 via mXylylene): < 0.01 µM

Fill in Kd for each of the 2 compounds listed.
1. CCCCCC(=O)N[C@H]1CSCc2cccc(c2)CSC[C@@H](C(=O)N[C@@H](CCC(=O)NCCNC(=O)CN2CCN(CC(=O)O)CCN(CC(=O)O)CCN(CC(=O)O)CC2)C(=O)O)NC(=O)[C@H](Cc2ccccc2)NC(=O)[C@H](CCC(N)=O)NC(=O)[C@H]([C@@H](C)O)NC(=O)[C@@H]2CCCN2C(=O)C2CN(C2)C1=O
2. CCCCCC(=O)N[C@H]1CSCc2cccc(c2)CSCC(C(=O)N[C@@H](CNC(=O)CCCCNC(=O)CN2CCN(CC(=O)O)CCN(CC(=O)O)CCN(CC(=O)O)CC2)C(=O)O)NC(=O)[C@H](Cc2ccccc2)NC(=O)[C@H](CCC(N)=O)NC(=O)[C@H]([C@@H](C)O)NC(=O)C2CCCN2C(=O)C2CN(C2)C1=O (stereo partly drawn) [JHDC40] (Hexanoyl-C[Azetidine3carboxylic][ξP]TQF[ξC][Dap]([Ava-DOTA])-OH; linker 1-7 via mXylylene)

**A:**
["0.01 to 0.1 µM", "0.01 to 0.1 µM"]
